- experimental.system: Met kinase domain (GST fusion protein) (Homo sapiens, UniProt P08581)
- Construct: Purified GST fusion protein containing the Met kinase domain
- Sequence (P08581 1078-1345 limits assumed): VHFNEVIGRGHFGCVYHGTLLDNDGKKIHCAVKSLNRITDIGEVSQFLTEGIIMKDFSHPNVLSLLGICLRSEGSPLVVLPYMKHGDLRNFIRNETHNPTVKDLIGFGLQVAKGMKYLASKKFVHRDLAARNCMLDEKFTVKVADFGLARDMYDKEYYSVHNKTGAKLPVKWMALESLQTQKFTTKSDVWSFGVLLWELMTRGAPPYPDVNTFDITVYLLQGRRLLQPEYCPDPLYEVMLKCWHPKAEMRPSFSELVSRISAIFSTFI
- procedure.text: Met transphosphorylation assay (ELISA, poly(glu-tyr) substrate)
- Format: biochemical
- condition: read-out: Met IC50
# Satisfied = IC50 below 2 µM (exclusive); Not satisfied = IC50 at/above 2 µM

See these solved cases before continuing.
> print(dat)
                                   compound  classification
1  Nc1ncc(-c2cccc(NS(=O)(=O)CCN3CCOCC3)c2)nc1OCc1c(F)ccc(F)c1Cl   Not satisfied
2  CC(C)c1ccc(NC(=O)C(Oc2cc(-c3ccc(OCCN4CCOCC4)cc3)cnc2N)c2ccccc2)cc1 (centres unmarked)   Not satisfied
3  Nc1ncc(-c2ccc(C(=O)N3CC[C@H](N)C3)cc2)cc1OCc1ccccc1Cl       Satisfied

# TODO verify IC50 < 2 µM strictly for this compound: CCN(CC)CCS(=O)(=O)Nc1cccc(-c2cnc(N)c(OCc3c(F)ccc(F)c3Cl)n2)c1
Not satisfied

Determine whether this compound shows IC50 lower than 2 µM (ties excluded): Nc1ncc(-c2cccc(NS(=O)(=O)CCNCC3CC3)c2)nc1OCc1c(F)ccc(F)c1Cl
Satisfied

----------
Some compounds, each annotated with its measured IC50.
- experimental.system: Met kinase domain (GST fusion protein) (Homo sapiens)
- Construct: Purified GST fusion protein containing the Met kinase domain
- procedure.text: Met transphosphorylation assay (ELISA, poly(glu-tyr) substrate)
- Format: biochemical
- condition: read-out: Met IC50
Provide the reading as a plain figure in nM.

Which IC50 value belongs to COc1cccc(-c2cnc(N)c(OCc3c(Cl)cccc3Cl)c2)c1 ?
4010

# query: IC50 of entry CC(Oc1nc(-c2ccc(C(=O)NCCN3CCOCC3)cc2)cnc1N)c1c(Cl)cccc1Cl (centres unmarked)
320

Given CS(=O)(=O)Nc1ccc(-c2cnc(N)c(OCc3ccccc3C#N)c2)cc1 , state its recorded IC50.
4180

Return reported IC50; argument: Nc1ncc(-c2ccc(O)cc2)nc1OCc1c(Cl)cccc1Cl
1350

----------
inhibition at 1 µM for assorted compounds
- experimental.system: HGFR (Homo sapiens, UniProt P08581)
- Construct: purchased Upstate 14-526
- Sequence (P08581 974-1390 limits assumed): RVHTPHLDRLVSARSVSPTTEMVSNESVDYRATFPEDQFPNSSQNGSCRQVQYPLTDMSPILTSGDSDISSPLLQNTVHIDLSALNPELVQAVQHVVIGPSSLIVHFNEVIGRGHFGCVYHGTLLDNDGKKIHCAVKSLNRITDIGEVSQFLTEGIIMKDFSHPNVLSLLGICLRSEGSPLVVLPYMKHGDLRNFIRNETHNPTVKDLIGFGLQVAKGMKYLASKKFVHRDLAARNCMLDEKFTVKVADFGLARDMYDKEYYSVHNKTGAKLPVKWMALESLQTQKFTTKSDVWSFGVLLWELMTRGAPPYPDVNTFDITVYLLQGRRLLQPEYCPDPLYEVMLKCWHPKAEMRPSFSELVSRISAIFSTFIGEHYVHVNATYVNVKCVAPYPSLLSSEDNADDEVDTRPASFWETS
- procedure.text: HGFR continuous-coupled spectrophotometric assay
- Assay type: biochemical
- condition: at 1 μM; Table 8, library procedure 43; read-out: % Inhibition (percent c-MET inhibition)
Please don't drop the unit; write it after the number.

Study these solved cases before continuing.
> print(dat)
                                   compound  result
1  CC1CN(C(=O)c2ccc(-c3cnc(N)c(OCc4cccc(C(=O)Nc5ccc(N6CCCCC6)cc5)c4)c3)cc2)CC(C)N1 (stereo not drawn)     28%
2  CC(C)Cc1noc(COc2cc(-c3ccc(C(=O)N4CC(C)NC(C)C4)cc3)cnc2N)n1 (stereo not drawn)     14%
3  CC1CN(C(=O)c2ccc(-c3cnc(N)c(OCc4c(F)ccc(F)c4Cl)c3)cc2)CC(C)N1 (stereo not drawn)     51%
4  Cc1cccc(COc2cc(-c3ccc(C(=O)N4CC(C)NC(C)C4)cc3)cnc2N)c1F (stereo not drawn)     28%
5  CCOC(=O)c1nc(COc2cc(-c3ccc(C(=O)N4CC(C)NC(C)C4)cc3)cnc2N)no1 (stereo not drawn)     13%

I would be grateful if you could share the reported inhibition at 1 µM for CC1CN(C(=O)c2ccc(-c3cnc(N)c(OCc4cccc5cccnc45)c3)cc2)CC(C)N1 (stereo not drawn) .
17%

----------
Reported inhibition at 1 pM values follow for various compounds
- experimental.system: HGFR (Homo sapiens)
- Construct: purchased Upstate 14-526
- procedure.text: HGFR continuous-coupled spectrophotometric assay
- Assay type: biochemical
- condition: at 1 pM; Table 6, library procedure 41; read-out: % Inhibition (percent c-MET inhibition)
Just the number in %, nothing appended.

> print(dat)
                                   compound  experimental.system  unit.descriptor  numeric.readout
1  C[C@@H]1CCC[C@H](C)N1CCNC(=O)c1cnc(N)c(OCc2c(Cl)cccc2Cl)c1  HGFR (Homo sapiens)                %                2

Value lookup for inhibition at 1 pM; key = COc1ccc(C(CCO)NC(=O)c2cnc(N)c(OCc3c(Cl)cccc3Cl)c2)cc1 (stereo not drawn)
22

Please look up its inhibition at 1 pM: CCN(CC)C(=O)C1CCCN(C(=O)c2cnc(N)c(OCc3c(Cl)cccc3Cl)c2)C1 (stereo not drawn)
33

----------
- experimental.system: Met kinase domain (GST fusion protein) (Homo sapiens, UniProt P08581)
- Construct: Purified GST fusion protein containing the Met kinase domain
- procedure.text: Met transphosphorylation assay (ELISA, poly(glu-tyr) substrate)
- Assay type: biochemical
- condition: read-out: Met IC50
pIC50: −log10 of the molar value.
pIC50 below 6 gives No; pIC50 at or above it gives Yes.

Some entries whose results are on file:
> print(dat)
                                   compound  classification
1  Nc1ncc(-c2cccc(NS(=O)(=O)CCNC3CC3)c2)nc1OCc1c(F)ccc(F)c1Cl              No
2  Nc1ncc(-c2ccc(OCC(=O)N3CCC[C@H]3CN3CCCC3)cc2)cc1OCc1c(F)cccc1F              No
3  Nc1ncc(-c2ccc(C(=O)N3CCC[C@@H]3CN3CCCC3)cc2)nc1OCc1c(Cl)cccc1Cl             Yes
4  CC(Oc1nc(-c2ccc(OCCN3CCOCC3)cc2)cnc1N)c1c(F)ccc(F)c1Cl (stereo not shown)             Yes
5  CC(Oc1nc(-c2cccc(C(=O)N3CCC[C@@H]3CN3CCCC3)c2)cnc1N)c1c(Cl)cccc1Cl (stereo partly shown)             Yes

Please check the record CC(=O)N1CCN(CCNC(=O)c2cccc(-c3cnc(N)c(OC(C)c4c(Cl)ccc(F)c4Cl)n3)c2)CC1 (stereo not shown) and state if its pIC50 is at or above 6.
Yes

Check the entry CC(C)CNC(=O)c1ccccc1COc1cc(-c2ccc(NS(C)(=O)=O)cc2)cnc1N : does pIC50 equal or exceed 6?
No

Is it the case that Nc1ncc(-c2ccc(NS(=O)(=O)CCN3CC[C@@H](O)C3)cc2)nc1OCc1c(F)ccc(F)c1Cl has pIC50 reaching or exceeding 6?
No

----------
The entries below come with measured inhibition at 1 pM values attached.
- experimental.system: HGFR (Homo sapiens)
- Construct: purchased Upstate 14-526
- procedure.text: HGFR continuous-coupled spectrophotometric assay
- Assay type: biochemical
- condition: at 1 pM; Table 6, library procedure 41; read-out: % Inhibition (percent c-MET inhibition)
Just the number in %, nothing appended.

Solved cases (6 shown):
> print(dat)
                                   molecule       assay.readout  numeric.readout
1  Nc1ncc(C(=O)NCc2ncccc2O)cc1OCc1c(Cl)cccc1Cl  inhibition at 1 pM               24
2  Nc1ncc(C(=O)NCc2ccccc2Br)cc1OCc1c(Cl)cccc1Cl  inhibition at 1 pM               36
3  Nc1ncc(C(=O)N2CCN(c3ccc(Br)cn3)CC2)cc1OCc1c(Cl)cccc1Cl  inhibition at 1 pM                5
4  CC(=O)N(C)C1CCN(C(=O)c2cnc(N)c(OCc3c(Cl)cccc3Cl)c2)C1 (stereo not drawn)  inhibition at 1 pM               31
5  CC(C)CCNC(=O)C1CC12CCN(C(=O)c1cnc(N)c(OCc3c(Cl)cccc3Cl)c1)CC2 (stereo not drawn)  inhibition at 1 pM               21
6  CN(C)c1ccc(CNC(=O)c2cnc(N)c(OCc3c(Cl)cccc3Cl)c2)cc1  inhibition at 1 pM               30

Field: inhibition at 1 pM (HGFR (Homo sapiens)). Entry: Nc1ncc(C(=O)N2CCC(COc3cccc4cccnc34)C2)cc1OCc1c(Cl)cccc1Cl (stereo not drawn)
35

# value lookup — system HGFR (Homo sapiens), readout inhibition at 1 pM, item Nc1ncc(C(=O)N2CCCC(O)(COc3cccc(F)c3)C2)cc1OCc1c(Cl)cccc1Cl (stereo not drawn)
36

Param readout= inhibition at 1 pM; system= HGFR (Homo sapiens); entry= C[C@@H]1CN(C(=O)c2cnc(N)c(OCc3c(Cl)cccc3Cl)c2)C[C@H](C)O1 ; returns value.
32

----------
- experimental.system: Met kinase domain (GST fusion protein) (Homo sapiens)
- Construct: Purified GST fusion protein containing the Met kinase domain
- procedure.text: Met transphosphorylation assay (ELISA, poly(glu-tyr) substrate);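 note: Cell-free ELISA with plate-bound poly(Glu:Tyr 4:1) phosphorylated by GST-fused Met kinase domain plus ATP and Mn2+, phosphotyrosine detected by anti-phosphotyrosine antibody with HRP and ABTS read-out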
- Type: biochemical
- condition: read-out: Met IC50
Below: a set of entries, each annotated with reported pIC50.
Keep in mind that pIC50 stands for -log10 of concentration in molar terms.

> print(dat)
                                smiles.repr                       experimental.system  numeric.readout
1  CC(=O)N1CCN(Cc2c[nH]c3ccc(-c4cnc(N)c(OCc5c(F)ccc(F)c5Cl)c4)cc23)CC1  Met kinase domain (GST fusion protein) (Homo sapiens)             6.10
2  Nc1ncc(-c2ccc(NS(=O)(=O)CCNCC3CC3)cc2)nc1OCc1c(F)ccc(F)c1Cl  Met kinase domain (GST fusion protein) (Homo sapiens)             5.89

Proceed to the following item.
Can you look up the measured pIC50 of CN(C)[C@H]1CCN(C(=O)c2ccc(-c3cnc(N)c(OCc4ccc(Cl)cc4Cl)c3)cc2)C1 for me?
6.10

Where these numbers come from: patent US20050009840A1
